target: CYP11A1 (Homo sapiens, UniProt P05108); construct: human H295R adrenocortical carcinoma cell line was used as source of enzyme; endogenous in cells; assay: CYP11A1 inhibition: modified isocaproic acid release assay (IARA) in H295R cells; conditions: human H295R adrenocortical carcinoma cells treated three days, 3 nM [24,25-3H]-labelled cholesterol, 1% DMSO, 10 concentrations in duplicates; read-out: IC50 of the test compounds on CYP11A1 inhibition
Sequence (P05108 40-521): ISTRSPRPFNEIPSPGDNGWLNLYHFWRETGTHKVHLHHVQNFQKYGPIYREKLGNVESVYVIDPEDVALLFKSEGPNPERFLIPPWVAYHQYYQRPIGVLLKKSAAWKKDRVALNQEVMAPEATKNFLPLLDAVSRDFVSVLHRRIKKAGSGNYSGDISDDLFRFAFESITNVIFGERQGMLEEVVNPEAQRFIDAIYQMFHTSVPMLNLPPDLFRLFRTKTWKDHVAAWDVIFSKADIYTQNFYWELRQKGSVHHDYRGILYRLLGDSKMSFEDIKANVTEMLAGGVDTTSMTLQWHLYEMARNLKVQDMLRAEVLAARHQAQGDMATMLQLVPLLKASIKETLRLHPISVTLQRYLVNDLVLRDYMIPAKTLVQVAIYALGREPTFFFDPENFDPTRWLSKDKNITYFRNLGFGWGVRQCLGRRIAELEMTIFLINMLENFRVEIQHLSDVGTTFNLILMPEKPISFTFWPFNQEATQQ
pIC50: −log10 of the molar value.
Measured property: pIC50

>  <Compound>
NC(=O)c1ccc(COc2coc(CN3Cc4ccccc4C3)cc2=O)cc1

>  <Measured property>
pIC50

>  <Assay result>
5.70 to 6.52

$$$$
>  <Compound>
CC(C)(C)OC(=O)N1CCC(Oc2coc(CN3Cc4ccccc4C3)cc2=O)CC1

>  <Measured property>
pIC50

>  <Assay result>
5.70 to 6.52

$$$$
>  <Compound>
CC(C)(C)OC(=O)N1CCC[C@@H](COc2coc(CN3Cc4ccccc4C3)cc2=O)C1

>  <Measured property>
pIC50

>  <Assay result>
5.70 to 6.52

$$$$
>  <Compound>
CS(=O)(=O)N1CCC(COc2coc(C[N+]3([O-])Cc4ccccc4C3)cc2=O)CC1

>  <Measured property>
pIC50

>  <Assay result>
5.70 to 6.52

$$$$
>  <Compound>
O=c1cc(CN2Cc3ccccc3C2)occ1OCC1CCC(CN2CCCS2(=O)=O)CC1 (stereo not shown)

>  <Measured property>
pIC50

>  <Assay result>
> 6.82

$$$$
>  <Compound>
O=C(c1ccc(COc2coc(CN3Cc4ccccc4C3)cc2=O)cc1)N1CCCC(O)C1 (stereo not shown)

>  <Measured property>
pIC50

>  <Assay result>
5.70 to 6.52

$$$$
>  <Compound>
CCOC(=O)c1cnn(-c2ccc(COc3coc(CN4Cc5ccccc5C4)cc3=O)cc2)c1

>  <Measured property>
pIC50

>  <Assay result>
5.70 to 6.52

$$$$
>  <Compound>
CC(F)(F)C(=O)N1CCC(COc2coc(CN3Cc4ccc(F)cc4C3)cc2=O)CC1

>  <Measured property>
pIC50

>  <Assay result>
6.52 to 6.82

$$$$
>  <Compound>
COC(=O)c1ccc(COc2coc(CN3Cc4ccccc4C3)cc2=O)cc1

>  <Measured property>
pIC50

>  <Assay result>
5.70 to 6.52

$$$$
>  <Compound>
O=c1cc(CN2Cc3ccccc3C2)occ1OCc1ccc(S(=O)(=O)C2CC2)cc1

>  <Measured property>
pIC50

>  <Assay result>
> 6.82

$$$$
>  <Compound>
O=C(NCCCO)c1ccc(COc2coc(CN3Cc4ccccc4C3)cc2=O)cc1

>  <Measured property>
pIC50

>  <Assay result>
5.70 to 6.52

$$$$
>  <Compound>
CS(=O)(=O)c1ccc(COc2coc(CN3Cc4cccc(F)c4C3)cc2=O)cc1

>  <Measured property>
pIC50

>  <Assay result>
5.70 to 6.52

$$$$
>  <Compound>
CC(C)C(=O)N1CCC(COc2coc(CN3Cc4ccccc4C3)cc2=O)CC1

>  <Measured property>
pIC50

>  <Assay result>
> 6.82

$$$$
>  <Compound>
O=c1cc(CN2Cc3ccccc3C2)occ1OCc1ccc(-c2ncco2)cc1

>  <Measured property>
pIC50

>  <Assay result>
> 6.82

$$$$
>  <Compound>
CS(=O)(=O)c1ccc(COc2coc(CN3Cc4cccc(Cl)c4C3)cc2=O)cc1

>  <Measured property>
pIC50

>  <Assay result>
5.70 to 6.52

$$$$
>  <Compound>
CN(C)C(=O)c1ccc(COc2coc(CN3CCc4cc(F)ccc4C3)cc2=O)cc1

>  <Measured property>
pIC50

>  <Assay result>
6.52 to 6.82

$$$$
>  <Compound>
CC1(COc2coc(CN3Cc4ccccc4C3)cc2=O)CCN(S(C)(=O)=O)CC1

>  <Measured property>
pIC50

>  <Assay result>
6.52 to 6.82

$$$$
>  <Compound>
CS(=O)(=O)N(C1CCC(COc2coc(CN3Cc4ccccc4C3)cc2=O)CC1)C1CC1 (stereo not shown)

>  <Measured property>
pIC50

>  <Assay result>
> 6.82

$$$$
>  <Compound>
O=c1cc(CN2Cc3ccccc3C2)occ1OCc1ccc(CO)cc1

>  <Measured property>
pIC50

>  <Assay result>
5.70 to 6.52

$$$$
>  <Compound>
CC(C)(C)OC(=O)N1CCC(CCOc2coc(CN3Cc4ccccc4C3)cc2=O)CC1

>  <Measured property>
pIC50

>  <Assay result>
5.70 to 6.52

$$$$
>  <Compound>
O=c1cc(CN2Cc3ccccc3C2)occ1OCC1CCOCC1

>  <Measured property>
pIC50

>  <Assay result>
6.52 to 6.82

$$$$
>  <Compound>
CN(C)C(=O)c1ccc(COc2coc(CN3Cc4ccccc4C3)cc2=O)c(F)c1

>  <Measured property>
pIC50

>  <Assay result>
6.52 to 6.82

$$$$
>  <Compound>
CNC(=O)c1ccc(COc2coc(CN3CCc4ccccc4C3)cc2=O)cc1F

>  <Measured property>
pIC50

>  <Assay result>
5.70 to 6.52

$$$$
>  <Compound>
CC(C)(O)c1ccc(COc2coc(CN3CCc4ccccc4C3)cc2=O)cc1

>  <Measured property>
pIC50

>  <Assay result>
> 6.82

$$$$
>  <Compound>
CS(=N)(=O)c1ccc(COc2coc(CN3Cc4ccc(C(F)(F)F)cc4C3)cc2=O)cc1 (stereo not shown)

>  <Measured property>
pIC50

>  <Assay result>
> 6.82

$$$$
>  <Compound>
O=C(c1ccc(COc2coc(CN3Cc4ccc(Cl)cc4C3)cc2=O)cc1)N1CC(F)(F)C1

>  <Measured property>
pIC50

>  <Assay result>
6.52 to 6.82

$$$$
>  <Compound>
COC(=O)[C@H]1CC[C@H](COc2coc(CN3Cc4ccccc4C3)cc2=O)CC1

>  <Measured property>
pIC50

>  <Assay result>
5.70 to 6.52

$$$$
>  <Compound>
CC(=O)N=S1(=O)CCC(COc2coc(CN3Cc4ccccc4C3)cc2=O)CC1 (stereo not shown)

>  <Measured property>
pIC50

>  <Assay result>
5.70 to 6.52

$$$$
>  <Compound>
CSc1ccc2c(c1)CN(Cc1cc(=O)c(OCC3CCN(S(C)(=O)=O)CC3)co1)C2

>  <Measured property>
pIC50

>  <Assay result>
6.52 to 6.82

$$$$
>  <Compound>
CC(C)(CO)NC(=O)c1ccc(COc2coc(CN3Cc4ccccc4C3)cc2=O)cc1

>  <Measured property>
pIC50

>  <Assay result>
6.52 to 6.82

$$$$
>  <Compound>
CN(C)C(=O)c1cc(F)c(COc2coc(CN3Cc4ccccc4C3)cc2=O)c(F)c1

>  <Measured property>
pIC50

>  <Assay result>
> 6.82

$$$$
>  <Compound>
N#Cc1ccc(COc2coc(CN3CCc4ccccc4C3)cc2=O)c(F)c1

>  <Measured property>
pIC50

>  <Assay result>
5.70 to 6.52

$$$$
>  <Compound>
COc1ccc(COc2coc(CN3Cc4ccccc4C3)cc2=O)cn1

>  <Measured property>
pIC50

>  <Assay result>
5.70 to 6.52

$$$$
>  <Compound>
COc1ccc(COc2coc(CN3CCc4ccccc4C3)cc2=O)cc1

>  <Measured property>
pIC50

>  <Assay result>
6.52 to 6.82

$$$$
